The reported numbers originate from patent US6875582B1.

Test system: WT K. pneumoniae Tim 19 (TEM-1 beta-lactamase)
Format: cell-based, Klebsiella pneumoniae
run.conditions: K. pneumoniae strain Tim 19 containing TEM-1 beta-lactamase
value.type: Resistance or sensitivity of clinical isolate

> print(dat)
                                   molecule     result
1  CO/N=C(\C(=O)N[C@@H]1C(=O)N2C(C(=O)O)=C(COC(C)=O)CS[C@H]12)c1csc(N)n1  sensitive
2  CO[C@@]1(NC(=O)Cc2cccs2)C(=O)N2C(C(=O)O)=C(COC(N)=O)CS[C@@H]21  sensitive
3  CC(C)(O/N=C(\C(=O)N[C@@H]1C(=O)N2C(C(=O)[O-])=C(C[n+]3ccccc3)CS[C@H]12)c1csc(N)n1)C(=O)O  sensitive
